Test system: CAKI-1 renal
Assay: NCI-60 one-dose screen, 48 h
Conditions: 10 µM unless noted
The panel holds about 83,000 compounds, 20% with a hit somewhere; the sample as a whole holds those more often. Active and inactive are the calls of the source. How the source made its calls: active means growth percent below 10; inactive means the rest.
Select the matching outcome among active, inactive

Sample answers from the record:
Status in this test for CC(C)C1=NOC(=O)C1=Cc1cn(-c2ccccc2)nc1-c1ccc(F)cc1 ?
inactive

Recorded call for O=C1c2c(c3c4ccccc4[nH]c3c3ccc4ccccc4c23)C(=O)N1CCN1CCOCC1 ?
inactive

---
Any idea what this test logged for O=C(NNC(=O)c1ccc(NC(=O)c2ccccn2)cc1)Nc1ccc([N+](=O)[O-])cc1 ?
inactive

Name the outcome recorded for c1ccc(Cn2cc3c(c2)-c2oncc2CC3)cc1 in the assay.
inactive

====

Tested on: SK-MEL-28 melanoma
Assay: NCI-60 one-dose screen, 48 h
Conditions: 10 µM unless noted
Compounds without any hit were thinned out: in the full panel of roughly 83,000, 20% have a hit. Active and inactive are the calls of the source. The calls were made as follows: active = growth percent below 10; inactive = the rest.
Hello, when you answer, please use one of the following outcomes: true (1) for active, false (0) for inactive

A selection of reference data follows.
Could you kindly confirm the outcome this assay logged for Cc1ccc(Nc2cc(N)nc(N)n2)cc1Cl ?
false (0)

Just curious, what result did O=C(Nc1ccccc1)Nc1ncnc2c1ncn2-c1ccc(Cl)cc1 get here?
false (0)

I'd appreciate the recorded outcome for CCn1c(SCC(=O)N/N=C(\C)c2ccc(Cl)cc2)nc2c1c(=O)n(C)c(=O)n2C from this test.
false (0)

How was COc1ccc(C(=O)C/C(=C\c2ccc(Cl)cc2)C(=O)NCc2ccccc2)cc1 classified in this test?
false (0)

How was O=C(Nc1cccc(-c2ccc(Cl)c(C(F)(F)F)c2)c1)C1CCN(Cc2cccc3cccnc23)CC1 classified in this test?
true (1)

Further cases:
Recorded call for CCCCCOC(=O)c1c(C)[nH]c(/C=C2\N=C(c3ccc[nH]3)C=C2OC)c1C ?
true (1)

Test call, this molecule: CCOC(=O)c1nn(-c2ccc(S(N)(=O)=O)cc2)c2nc(C)cc(=O)n12
false (0)

Give the logged outcome of this assay for the following molecule: C=C(CBr)[C@@H]1CC[C@]2(C(=O)O)CC[C@]3(C)[C@H](CC[C@@H]4[C@@]5(C)CCC(=O)C(C)(C)[C@@H]5CC[C@]43C)[C@@H]12
false (0)

Please share the test call associated with COc1ccc(-c2nn(-c3cccc(Cl)c3)cc2-c2cc(-c3ccc(Br)cc3)nc(N)n2)cc1 .
false (0)

Assay outcome for CCSc1oc(-c2ccccc2)nc1[P+](c1ccccc1)(c1ccccc1)c1ccccc1 : what was it?
false (0)

====

Would you kindly list growth for each of these molecules?
System: TK-10 renal
Test: NCI-60 one-dose screen, 48 h (100 = growth as untreated, 0 = no growth, -100 = all killed)
Conditions: 10 µM unless noted
The panel holds about 83,000 compounds, 20% with a hit somewhere; the sample as a whole holds those more often.
One number for each entry, in %.

Please supply growth for each of the following items, keeping them in order.
1. CN(c1cc2ncc(=O)[nH]c2cc1NC(N)=NCc1ccc(Cl)cc1)C1CCCCC1
2. COc1ccc(C(=O)/C=C/c2c(C(F)(F)F)nc3ccccn23)cc1OC
3. CN1CCN(c2cc(Nc3cc(C4CC4)[nH]n3)nc(Nc3ccc(CC(=O)NCc4cccc(F)c4)cc3)n2)CC1
4. COC1=CC(c2ccc[nH]2)=N/C1=C\c1[nH]c(C)c(CC(=O)NCc2ccccc2)c1C
5. C=CCSc1nnc(NC(=O)CCl)s1
6. O=C(COc1ccc(-c2nc3cc(Cl)c(Cl)cc3[nH]2)cc1)N=Nc1c(O)[nH]c2ccc(Cl)cc12
7. CCSC(SCC)c1ccc(Cl)cc1
8. C#CCNC(=O)[C@H](CC)[C@H]1CC[C@H](C)[C@H]([C@@H](C)[C@H](O)[C@H](C)C(=O)[C@H](CC)C2O[C@]3(C=CC(=O)[C@]4(CC[C@@](C)([C@H]5CC[C@](O)(CC)[C@H](C)O5)O4)O3)[C@H](C)C[C@@H]2C)O1 (stereo partly specified)

1: 85.2; 2: 29.9; 3: 34.5; 4: 24.9; 5: 108; 6: 91.4; 7: 116; 8: 87.1

For the 6 molecules below, give their growth values.
1. Cc1ccc(Nn2c(SCC(=O)Nc3nc(-c4ccccc4)cs3)nc(C)c2C)cc1
2. COC(=O)[C@]12CCC(C)(C)C[C@H]1[C@H]1/C(=N/OCCc3nn[nH]n3)C[C@@H]3[C@@]4(C)CC[C@H](OC(C)=O)C(C)(C)[C@@H]4CC[C@@]3(C)[C@]1(C)CC2
3. Nc1nc2ccc(-c3nc4ccc5[nH]ncc5c4c4c3CCCC4)cc2s1
4. Cn1cc(-c2nonc2-c2cn(C)c3ccccc23)c2ccccc21
5. COc1ccc(/C=C(\C#N)n2nnc3cc(Cl)ccc32)cc1
6. COc1ccc(NC(=O)c2sc3nc(C)c(C(=O)/C=C/c4ccccc4)cc3c2N)cc1

1: 72.7; 2: 55.6; 3: 96.3; 4: 62.5; 5: 25.6; 6: 80.5

Below is a list of molecules. For each, state its recorded growth.
1. O=C1c2ccc3c4c5ccc(c24)C(=O)N1CCCOCCCCOCCCNCc1ccc(cc1)CNCCCOCCCCOCCCN(C3=O)C5=O
2. Cc1c[n+](Cc2ccc3ccccc3c2)cn1Cc1ccc2ccccc2c1
3. N#Cc1c(-c2ccccc2)[nH]c2ncc(-c3ccccc3)n2c1=O
4. CC(C)c1ccc(-n2c(=S)[nH]c3sc4cc(O)ccc4c3c2=O)cc1
5. CCOC(=O)C1=C(c2ccccc2)N=C2SC=C(c3ccc(Cl)cc3)N2C1c1ccc(Br)cc1 (stereo unspecified)

1. 21.6
2. -4.54
3. 120
4. 123
5. 103

Can you give me growth for all of these, one by one?
1. O=C(NCc1ccc(Cl)cc1Cl)C1CCC(=O)N1c1cccs1 (stereo unspecified)
2. CC1=NC2=Nn3c(c4cnn(-c5ccccc5)c4n/c3=N\N)NN2C(c2ccccc2)=C1

1. 98.8
2. 109
